Test: gradient 5% acetonitrile 3 min, to 50% in 2 min, to 85% in 15 min, held 3 min, 100 µL/min
Details: column: Zorbax Extend-C18 2.1 x 50 mm; eluents: water / acetonitrile, 0.1% formic acid
Category key, based on recorded RP-LC retention time: low = under 700 s, medium = from 700 s up to 900 s, high = 900 s and over

Worked examples, 7 compounds total:
> print(dat)
                                   compound  discrete.label
1  COc1cc([C@@H]2c3cc4c(cc3[C@H](O)[C@@H](CO)[C@@H]2C(=O)NCc2ccc(C)o2)OCO4)cc(OC)c1OC             low
2  COCC(=O)N1CC(c2nnc(C(C)C)o2)C2(CCOCC2)C1 (centres undefined)             low
3  Cc1ccc(C)c(CNC(=O)c2ccc(NC(=O)C3CC3)cc2N2CCOCC2)c1          medium
4  COc1ccc(Cl)cc1NS(=O)(=O)c1cc(-c2nc(C(C)(C)C)cs2)cs1            high
5  Cc1ccc(-c2nnc(-c3ccccc3)o2)cc1S(=O)(=O)N1CCCCC1            high
6  CN(Cc1ccco1)C(=O)c1ccc(-n2cc(CNC(=O)C3CCC3)cn2)cc1             low
7  CCc1noc(NC(C)=O)c1-c1ccc(OC)c(S(=O)(=O)Nc2cccc(OC)c2)c1          medium

Could you now consider this next compound?
Lab log: `O=C(Nc1ccc2c(c1)OCO2)N1CCC(N2CCN(Cc3ccccc3)C2=O)CC1` — assign RP-LC retention time category
medium

---

Measured RP-LC retention time, listed per entry for reference.
Assay: gradient 5% acetonitrile 3 min, to 50% in 2 min, to 85% in 15 min, held 3 min, 100 µL/min
Conditions: column: Zorbax Extend-C18 2.1 x 50 mm; eluents: water / acetonitrile, 0.1% formic acid
Field: numeric (s). Do not append units.

> print(dat)
                                   molecule            value.kind  val
1         Cc1ccc(C(=O)NCCn2c(C)cnc2C2CC2)s1  RP-LC retention time  584
2  O=C(c1ccc(F)cc1F)N1CCC2(CC1)OCC(C(=O)N1CCCC1)N2C(=O)c1ccccc1 (stereo not given)  RP-LC retention time  698
3  COc1ccc2c(c1)C1(CCN(C(=O)Nc3ccccc3OC)C1)C(=O)N2 (stereo not given)  RP-LC retention time  722
4     Cc1noc(-c2ccc(=O)n(Cc3ccc(F)cc3)n2)n1  RP-LC retention time  807

So what does the record say about RP-LC retention time for `COc1ccc(OC)c2sc(N3CCN(S(=O)(=O)c4cccs4)CC3)nc12` ?
896

Then Nc1c(-c2nnc(SCC(=O)N3CCOCC3)n2CC2CCCO2)sc2ncccc12 (stereo not given) ?
641

Then `Cc1nn2c(CNC(=O)c3cc(F)cc(F)c3)c(C)nc2s1` ?
651

Then `COc1cc(NC(=O)c2ccccn2)ccc1Cl` ?
994

Then `CN(C)C(=O)[C@H](O)[C@H](Cc1ccccc1)NC(=O)c1cc2cc(Cl)ccc2[nH]1` ?
956

Then `O=C(Cc1ccccc1Cl)NCCCn1cccc1` ?
773

---

Assay: gradient 5% acetonitrile 3 min, to 50% in 2 min, to 85% in 15 min, held 3 min, 100 µL/min
Conditions: column: Zorbax Extend-C18 2.1 x 50 mm; eluents: water / acetonitrile, 0.1% formic acid
Response key: class 1 means RP-LC retention time >= 800 s; class 0 means RP-LC retention time < 800 s.

Worked examples, 3 molecules total:
> print(dat)
                                   molecule  discrete.label
1  CC1CCN(c2nn(CC(=O)Nc3ccc4c(c3)CCC4)c(=O)c3ccccc23)CC1         class 1
2  Cc1ccc(S(=O)(=O)N2CCC3(CC2)NCCN=C3NCc2ccccc2F)cc1         class 0
3             Cc1noc(-c2nc(-c3ccncc3)no2)n1         class 0

Could you now consider this next molecule?
RP-LC retention time >= 800 s for O=C(CCC1NC(=O)c2ccccc2NC1=O)Nc1ncn[nH]1 (stereo not given) ?
class 0

---

Assay: gradient 5% acetonitrile 3 min, to 50% in 2 min, to 85% in 15 min, held 3 min, 100 µL/min
Settings: column: Zorbax Extend-C18 2.1 x 50 mm; eluents: water / acetonitrile, 0.1% formic acid
Measured RP-LC retention time, listed per entry for reference.
Field: numeric (s). Do not append units.

Guide cases for RP-LC retention time, answers given:
> print(dat)
                                   molecule  value.units   val
1  CSc1ccc(CNC(=O)C2CCN(c3cnc4nccnc4c3)CC2)cc1            s   702
2  CCCCCOC(=O)c1ccc(Nc2nc(C(=O)OCC)nc3ccccc23)cc1            s  1160

So what does the record say about RP-LC retention time for COc1ccc(NC(=O)C2CN(S(=O)(=O)c3cccnc3)CC23CCCCC3)cc1F (stereo not given) ?
900

Then Cc1ccc(-n2nc(N3CCCC(C(=O)Nc4cc(F)ccc4F)C3)ccc2=O)cc1Cl (stereo not given) ?
1060

Then `COc1ccc(-c2noc(Cc3nnc(-c4cc(F)cc(F)c4)o3)n2)cc1OC` ?
924

Then `O=c1n(Cc2ccccc2)nc2ccc(S(=O)(=O)N3CCOCC3)cn12` ?
778

---

Test: gradient 5% acetonitrile 3 min, to 50% in 2 min, to 85% in 15 min, held 3 min, 100 µL/min
Details: column: Zorbax Extend-C18 2.1 x 50 mm; eluents: water / acetonitrile, 0.1% formic acid
Measured RP-LC retention time, listed per entry for reference.
Field: numeric (s). Do not append units.

> print(dat)
                                   compound   val
1  CCc1ccc(OCC(=O)Nc2cc3c(cc2N2CCCC2)n(C)c(=O)c(=O)n3C)cc1   836
2  COc1ccc(CC(=O)NC2CCN(c3cc(-c4ccc(F)cc4)[nH]n3)C2)cc1OC (centres undefined)   670
3  Cc1ccc(N2CCN(C(=O)c3nnc(-c4ccc(S(=O)(=O)N5CCCC5)cc4)o3)CC2)c(C)c1  1190
4  CCN1CCN(CC2=C(C(=O)OC)C(c3ccccc3C)NC(=O)N2)CC1 (centres undefined)   615
5  COc1ccc(OC)c(NC(=O)Cn2c(C(F)(F)F)nc3cc4c(cc32)OCCO4)c1   881

So what does the record say about RP-LC retention time for `CC1(C)CC(=O)c2cn(-c3ccc(F)cc3)c(=O)c(C(=O)N3CCN(c4ccccn4)CC3)c2C1` ?
636

Then `O=C1Oc2ccccc2C(=O)/C1=C1/C=C(c2ccccc2)SS1` ?
1210

Then `CCOC(=O)c1cccc(NC(=O)c2cnc(-c3ccc(C)cc3)nc2-c2ccncc2)c1` ?
1050

Then `O=C(c1cn2cc(Cl)ccc2n1)N1CCN(c2ccccc2Cl)CC1` ?
946

Then `Cc1ccc2nc(N3CCN(c4ccccc4)CC3)c(-c3noc(C)n3)cc2c1` ?
699

---

Test: gradient 5% acetonitrile 3 min, to 50% in 2 min, to 85% in 15 min, held 3 min, 100 µL/min
Details: column: Zorbax Extend-C18 2.1 x 50 mm; eluents: water / acetonitrile, 0.1% formic acid
Measured RP-LC retention time, listed per entry for reference.
Field: numeric (s). Do not append units.

> print(dat)
                                   molecule            value.kind  val
1  CCc1nn2c(CNS(=O)(=O)c3cccc(F)c3)c(-c3ccccc3)nc2s1  RP-LC retention time  935
2  COc1ccc(C2CC(=O)N(c3ccc(OC)c(OC)c3)C(=O)C2)cc1OC  RP-LC retention time  910
3  Cc1nc2cc3c(cc2n1CC(=O)NCCc1ccc(F)cc1)OCCO3  RP-LC retention time  646
4  CCc1ccc(S(=O)(=O)NCC2CCN(C(=O)Nc3ccccc3OC)CC2)s1  RP-LC retention time  878
5  O=C1CC(Nc2ccc(N3CCCCC3)cc2)C(=O)N1c1ccccc1F (centres undefined)  RP-LC retention time  571

So what does the record say about RP-LC retention time for `COc1cc(NC(=O)COc2cc(C)nc(-c3ccc(C(F)(F)F)cc3)n2)cc(OC)c1OC` ?
1080

Then Cc1ccc(NC(=O)N2CCC(n3cnnc3C3CC3)C2)cc1C (centres undefined) ?
665

Then `Cn1c(=O)n(C)c2cc(S(=O)(=O)c3ccc(F)cc3)c(NC(=O)Cc3ccc(F)cc3)cc21` ?
874

Then `CS(=O)(=O)c1ccc(Sc2nc3ccccc3s2)c([N+](=O)[O-])c1` ?
900

---

Test: gradient 5% acetonitrile 3 min, to 50% in 2 min, to 85% in 15 min, held 3 min, 100 µL/min
Details: column: Zorbax Extend-C18 2.1 x 50 mm; eluents: water / acetonitrile, 0.1% formic acid
Response key: true (1) means RP-LC retention time >= 700 s; false (0) means RP-LC retention time < 700 s.

> print(dat)
                                   molecule  discrete.label
1           CCn1cc(CCNS(=O)(=O)CC)c2cccnc21       false (0)
2  Cc1cc(NS(=O)(=O)c2c(C)sc(C)c2-c2n[nH]c(C)c2C)ccc1Br        true (1)
3  COc1ccc(CNC(=O)c2sc(-c3cn(C)c4ncccc34)nc2C)cc1        true (1)
4  O=c1c2c(CO)c(-c3ccccc3)nn2ccn1CCc1ccccc1        true (1)
5       COCCNC(=O)c1cc(-c2ccccn2)nc2ccccc12       false (0)
6  Cc1c(F)cccc1NC(=O)N1CCC(n2cnnc2C2CC2)C1 (stereo not given)       false (0)

Could you now consider this next molecule?
RP-LC retention time >= 700 s for `COc1ccc2[nH]cc(CCNC(=O)C3CCN(S(=O)(=O)c4ccc5c(ccn5C)c4)CC3)c2c1` ?
true (1)
